- Assayed Target: HIV-1 envelope (Env) of virus REJO4541.67 (HIV-1)
- Protocol Description: cell-based or functional assay
Provide the reported IC50 of viral neutralization (Env.IMC.LucR virus, TZM-BL reporter cells) of each item.
Give bare numbers, in µg/mL.

Recorded results for 2 binders are shown here.
L2A1_H58NQ (antibody, V domains shown) VH: HVQLVQSGGGVKKIGAAVRISCEVTGYKFMDQLINWVRQAPGQGLEWMGWMNPTYGQVQYSWRFEGRVTMTRDMDTETAFMELRGLRVDDTAVYYCARGPSGENYPFHYWGQGVRVVVSS VL: ASALTQPASMSASPGQSVTISCSGTRHIISAWFQQYPGKPPKLIIFDDDKRPSGVPSRFSASRPGDTASLTISNVQPEDEATYICNTYEFFGGGTRLTVL
0.025
L2A1_H58ND (antibody, V domains shown) VH: HVQLVQSGGGVKKIGAAVRISCEVTGYKFMDQLINWVRQAPGQGLEWMGWMNPTYGQVDYSWRFEGRVTMTRDMDTETAFMELRGLRVDDTAVYYCARGPSGENYPFHYWGQGVRVVVSS VL: ASALTQPASMSASPGQSVTISCSGTRHIISAWFQQYPGKPPKLIIFDDDKRPSGVPSRFSASRPGDTASLTISNVQPEDEATYICNTYEFFGGGTRLTVL
0.212

IC50 of viral neutralization (Env.IMC.LucR virus, TZM-BL reporter cells) lookup needed for L2A1_H58NA (antibody, V domains shown) VH: HVQLVQSGGGVKKIGAAVRISCEVTGYKFMDQLINWVRQAPGQGLEWMGWMNPTYGQVAYSWRFEGRVTMTRDMDTETAFMELRGLRVDDTAVYYCARGPSGENYPFHYWGQGVRVVVSS VL: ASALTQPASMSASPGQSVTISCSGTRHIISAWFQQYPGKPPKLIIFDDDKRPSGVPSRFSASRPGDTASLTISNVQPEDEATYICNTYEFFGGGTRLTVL , thanks.
0.104
